Catalogue of compounds with associated Ki
- studySystem: TSPO (Homo sapiens, UniProt P30536)
- Sequence (P30536 2-169): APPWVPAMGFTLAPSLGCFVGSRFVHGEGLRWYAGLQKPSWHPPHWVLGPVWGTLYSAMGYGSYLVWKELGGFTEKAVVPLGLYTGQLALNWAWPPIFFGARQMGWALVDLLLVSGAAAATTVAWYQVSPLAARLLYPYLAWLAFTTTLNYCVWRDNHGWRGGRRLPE
- protocolSummary: biochemical
observationType: Ki (nM)

* CCN(CC)C(=O)[C@@H]1Sc2ccccc2-c2c1c1ccc(OC)cc1n2CCF [Compound 1 E1] | 31
* CCN(CC)C(=O)[C@H]1Sc2ccccc2-c2c1c1ccc(OC)cc1n2CC[18F] [Compound 1 E2] | 4
* COc1ccccc1CN(C(C)=O)c1cnccc1Oc1ccccc1 [PBR28] | 117

* * *

- studySystem: TSPO (Homo sapiens, UniProt P30536, T147A)
- Sequence (P30536 2-169 T147A): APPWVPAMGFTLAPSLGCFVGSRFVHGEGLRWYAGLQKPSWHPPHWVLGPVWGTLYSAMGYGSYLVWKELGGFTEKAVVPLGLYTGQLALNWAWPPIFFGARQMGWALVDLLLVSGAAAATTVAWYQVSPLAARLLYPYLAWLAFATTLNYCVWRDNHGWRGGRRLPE
- protocolSummary: biochemical
observationType: Ki (nM)

- CCN(CC)C(=O)C1Sc2ccccc2-c2c1c1c(OC)cccc1n2CCF (racemic): 0.05
